Field: % Activation. Provide a value for each of the compounds that follow.
experimentalSystem: CFTR G551D mutant (Homo sapiens, UniProt P13569, G551D)
Construct: expressed in transfected cells; host or cells: HEK293 cells, reverse transfection with plasmids
Sequence (P13569 whole entry G551D): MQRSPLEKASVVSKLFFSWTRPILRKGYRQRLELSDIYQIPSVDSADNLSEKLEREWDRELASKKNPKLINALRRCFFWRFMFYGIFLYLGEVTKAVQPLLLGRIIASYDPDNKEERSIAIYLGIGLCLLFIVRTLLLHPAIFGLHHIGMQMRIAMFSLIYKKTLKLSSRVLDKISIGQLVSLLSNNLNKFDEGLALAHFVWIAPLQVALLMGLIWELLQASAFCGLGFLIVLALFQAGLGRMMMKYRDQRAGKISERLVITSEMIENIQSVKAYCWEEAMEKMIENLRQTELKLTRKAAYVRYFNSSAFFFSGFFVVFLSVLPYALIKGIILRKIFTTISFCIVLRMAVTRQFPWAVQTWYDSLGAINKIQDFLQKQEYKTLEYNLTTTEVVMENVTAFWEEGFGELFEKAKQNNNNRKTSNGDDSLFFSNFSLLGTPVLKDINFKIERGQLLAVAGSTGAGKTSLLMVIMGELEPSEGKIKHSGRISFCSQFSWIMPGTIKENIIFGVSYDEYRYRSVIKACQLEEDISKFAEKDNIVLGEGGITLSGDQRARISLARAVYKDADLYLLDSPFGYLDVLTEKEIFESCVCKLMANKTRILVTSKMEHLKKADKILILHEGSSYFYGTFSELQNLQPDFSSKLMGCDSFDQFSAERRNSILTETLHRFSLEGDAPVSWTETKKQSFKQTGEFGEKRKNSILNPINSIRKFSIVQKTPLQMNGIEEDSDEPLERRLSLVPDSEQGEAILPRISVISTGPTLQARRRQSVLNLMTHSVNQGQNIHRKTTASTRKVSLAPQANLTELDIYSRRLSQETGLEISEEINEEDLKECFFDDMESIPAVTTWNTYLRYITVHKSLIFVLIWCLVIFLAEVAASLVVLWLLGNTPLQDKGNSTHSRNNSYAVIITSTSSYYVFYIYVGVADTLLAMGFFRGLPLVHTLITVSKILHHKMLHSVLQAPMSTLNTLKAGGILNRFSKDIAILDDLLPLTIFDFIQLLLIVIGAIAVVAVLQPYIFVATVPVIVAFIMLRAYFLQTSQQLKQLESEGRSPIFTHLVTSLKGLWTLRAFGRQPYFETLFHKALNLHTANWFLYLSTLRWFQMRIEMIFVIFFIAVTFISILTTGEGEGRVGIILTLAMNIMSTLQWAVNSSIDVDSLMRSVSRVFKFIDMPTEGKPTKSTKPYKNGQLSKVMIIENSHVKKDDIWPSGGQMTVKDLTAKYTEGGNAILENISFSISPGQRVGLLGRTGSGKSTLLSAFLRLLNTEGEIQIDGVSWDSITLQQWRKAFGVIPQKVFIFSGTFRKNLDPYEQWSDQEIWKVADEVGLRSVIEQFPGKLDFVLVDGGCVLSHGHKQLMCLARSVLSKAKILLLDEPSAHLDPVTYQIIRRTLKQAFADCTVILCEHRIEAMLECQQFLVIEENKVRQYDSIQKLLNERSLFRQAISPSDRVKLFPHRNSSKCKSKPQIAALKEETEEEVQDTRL
assayMethodText: YFP-halide influx assay for the CFTR-G551D mutation (HEK293 cells)
Type: cell-based
assayConditions: forskolin 10.67 μM
Dear colleague, please return just the value in %, with no unit written.

get_value(item= CC(C)COCC(O)CNC(=O)c1ncc(S(=O)(=O)c2ccc(C(F)(F)F)cc2)cc1N (stereo not shown) [Compound 166] , readout=% Activation) returns 69.3

% Activation measured on Nc1cc(S(=O)(=O)c2ccc(OC(F)(F)F)cc2)cnc1C(=O)NC[C@@H](O)COCC1CC1 [Compound 251] = 93.3

Lookup result for Nc1cc(S(=O)(=O)c2ccc(C(F)(F)F)cc2)cnc1C(=O)N[C@H]1CCC[C@@H]1O [Compound 215] ; measured % Activation: 57.6

% Activation for Nc1cc(S(=O)(=O)c2ccc(C(F)(F)F)cc2)cnc1C(=O)NCCO [Compound 217] is 51.8

Summary for this compound, Nc1cc(S(=O)(=O)c2ccc(C(F)(F)F)cc2F)cnc1C(=O)NCCO [Compound 219] : % Activation is 44.7

// sample Nc1cc(S(=O)(=O)c2ccc(OC(F)(F)F)cc2)cnc1C(=O)NC[C@H](O)C(F)(F)F [Compound 26] , its % Activation was 80.8

Short answer for Nc1cc(S(=O)(=O)c2ccc(OC(F)(F)F)cc2F)cnc1C(=O)N1CC(F)(F)C1 [Compound 172] : % Activation was 62.4

Looking up Nc1cc(S(=O)(=O)c2ccc(OC(F)(F)F)cc2F)cnc1C(=O)NC[C@@H](O)C(F)(F)F [Compound 117] , I found its % Activation recorded as 79.8

Notebook: COCC(=O)NNC(=O)c1ncc(S(=O)(=O)c2ccc(OC(F)(F)F)cc2)cc1N [Compound 286] , % Activation read as 26.8

% Activation measured on Nc1cc(S(=O)(=O)c2ccccc2OC(F)(F)F)cnc1C(=O)NC[C@@H](O)C(F)(F)F [Compound 81] = 108.0

So, Nc1cc(S(=O)(=O)c2ccc(C(F)(F)F)cc2)cnc1C(=O)N[C@@H]1COCC[C@@H]1O (racemic) [Compound 216] ? Its % Activation was 47.8

Documented % Activation of Nc1cc(S(=O)(=O)c2ccccc2OC(F)(F)F)cnc1C(=O)N[C@@H]1COCC[C@@H]1O (racemic) [Compound 83] : 90.4

For CC(C)C1(O)CN(C(=O)c2ncc(S(=O)(=O)c3ccc(C(F)(F)F)cc3)cc2N)C1 [Compound 159] the compound record lists % Activation as 46.6

So, Nc1cc(S(=O)(=O)c2ccc(OC(F)(F)F)cc2)cnc1C(=O)NCCC1OCCO1 [Compound 147] ? Its % Activation was 69.0

Entry CC(C)OCC(O)CNC(=O)c1ncc(S(=O)(=O)c2ccc(OC(F)(F)F)cc2F)cc1N (stereo not shown) [Compound 168] ; % Activation = 82.4

So, Nc1cc(S(=O)(=O)c2ccc(C(F)(F)F)cc2)cnc1C(=O)NC1(CO)CC1 [Compound 292] ? Its % Activation was 28.5

---

experimentalSystem: CFTR ΔF508 (Homo sapiens, UniProt P13569, DEL508-508)
Sequence (P13569 with tags, fused parts or gaps DEL508-508): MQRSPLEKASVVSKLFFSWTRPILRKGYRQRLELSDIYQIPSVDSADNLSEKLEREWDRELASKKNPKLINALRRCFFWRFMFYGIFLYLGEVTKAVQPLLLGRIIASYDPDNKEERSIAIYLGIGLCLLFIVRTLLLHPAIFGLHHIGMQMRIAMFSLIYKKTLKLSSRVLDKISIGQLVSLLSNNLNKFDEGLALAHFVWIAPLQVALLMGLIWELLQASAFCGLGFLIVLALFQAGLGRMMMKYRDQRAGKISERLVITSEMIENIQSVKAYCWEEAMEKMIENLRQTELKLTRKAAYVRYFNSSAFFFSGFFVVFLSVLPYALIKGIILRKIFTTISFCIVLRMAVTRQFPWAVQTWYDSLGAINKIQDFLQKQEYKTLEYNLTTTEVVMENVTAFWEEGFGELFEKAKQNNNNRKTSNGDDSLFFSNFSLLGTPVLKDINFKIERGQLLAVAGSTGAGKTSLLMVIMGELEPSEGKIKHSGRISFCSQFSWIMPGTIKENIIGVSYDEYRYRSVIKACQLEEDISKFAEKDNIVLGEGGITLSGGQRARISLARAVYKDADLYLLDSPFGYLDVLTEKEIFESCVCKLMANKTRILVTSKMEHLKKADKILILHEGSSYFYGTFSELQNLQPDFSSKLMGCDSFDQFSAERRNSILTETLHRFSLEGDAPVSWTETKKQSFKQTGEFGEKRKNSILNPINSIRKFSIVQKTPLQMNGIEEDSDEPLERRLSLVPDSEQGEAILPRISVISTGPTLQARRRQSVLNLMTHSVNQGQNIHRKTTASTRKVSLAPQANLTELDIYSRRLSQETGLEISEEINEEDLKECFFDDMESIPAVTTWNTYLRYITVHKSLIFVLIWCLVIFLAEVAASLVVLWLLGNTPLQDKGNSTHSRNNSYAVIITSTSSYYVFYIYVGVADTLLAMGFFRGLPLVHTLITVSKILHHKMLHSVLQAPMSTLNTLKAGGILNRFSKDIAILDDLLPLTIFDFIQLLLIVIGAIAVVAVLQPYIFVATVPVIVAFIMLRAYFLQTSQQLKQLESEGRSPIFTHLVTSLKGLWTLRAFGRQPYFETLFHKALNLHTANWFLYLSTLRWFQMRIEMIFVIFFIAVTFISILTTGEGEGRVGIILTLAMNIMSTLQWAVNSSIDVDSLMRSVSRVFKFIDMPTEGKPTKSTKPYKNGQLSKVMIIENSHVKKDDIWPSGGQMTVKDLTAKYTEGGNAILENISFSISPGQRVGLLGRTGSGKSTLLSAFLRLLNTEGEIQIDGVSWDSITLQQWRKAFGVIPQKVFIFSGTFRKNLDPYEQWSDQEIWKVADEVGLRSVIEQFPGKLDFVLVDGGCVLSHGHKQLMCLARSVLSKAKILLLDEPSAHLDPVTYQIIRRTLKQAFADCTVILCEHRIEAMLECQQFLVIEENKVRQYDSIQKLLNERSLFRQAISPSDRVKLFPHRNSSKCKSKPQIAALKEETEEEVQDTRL
assayMethodText: TECC assay, primary bronchial epithelial cells, CFTR ΔF508
assayConditions: primary bronchial epithelial cells of CF patients homozygous for CFTR ΔF508, treated with 3 μM VX809, increase in Isc after forskolin
Threshold 40 nM. EC50 below it: met. EC50 at it or above: not met.

## Input Determine whether this compound shows EC50 lower than 40 nM (ties excluded): C[C@H](O)CNC(=O)c1ncc(S(=O)(=O)c2ccc(OC(F)(F)F)cc2)cc1N [Compound 21]
## Output met

## Input Is EC50 of COCC(O)CNC(=O)c1ncc(S(=O)(=O)c2ccc(OC(F)(F)F)cc2F)cc1N (centres unmarked) [Compound 71] strictly below 40 nM?
## Output not met

## Input Regarding CC(C)(O)CNC(=O)c1ncc(S(=O)(=O)c2ccc(OC(F)(F)F)cc2)cc1N [Compound 1] , kindly confirm whether its EC50 is beneath 40 nM.
## Output not met

## Input Just wondering, is EC50 of Nc1cc(S(=O)(=O)c2ccc(OC(F)(F)F)cc2)cnc1C(=O)NCCC(O)C(F)(F)F (centres unmarked) [Compound 52] below 40 nM?
## Output met

## Input I'd appreciate it if you could check whether Nc1cc(S(=O)(=O)c2ccc(OC(F)(F)F)cc2)cnc1C(=O)NCC(O)C(F)(F)F (centres unmarked) [Compound 6] has EC50 smaller than 40 nM.
## Output not met

## Input Find out if reported EC50 for Nc1cc(S(=O)(=O)c2ccc(OC(F)(F)F)cc2)cnc1C(=O)NC[C@@H](O)C(F)(F)F [Compound 37] is less than 40 nM
## Output met

## Input Strictly below 40 nM: is that where EC50 of Nc1cc(S(=O)(=O)c2ccc(OC(F)(F)F)cc2)cnc1C(=O)NC[C@H](O)C(F)(F)F [Compound 26] sits?
## Output met

## Input Hello, I'm reviewing records and need to know if EC50 of COC[C@H](O)CNC(=O)c1ncc(S(=O)(=O)c2ccc(C(F)(F)F)cc2)cc1N [Compound 70] is below 40 nM. Could you check?
## Output met

## Input Regarding Nc1cc(S(=O)(=O)c2ccc(F)cc2)cnc1C(=O)NC[C@H](O)C(F)(F)F [Compound 25] , kindly confirm whether its EC50 is beneath 40 nM.
## Output met

## Input Problem: For the compound CC1(C)CN(C(=O)c2ncc(S(=O)(=O)c3ccc(OC(F)(F)F)cc3)cc2N)C1 [Compound 59] , is EC50 under 40 nM?
## Output not met

## Input I'd appreciate it if you could check whether Nc1cc(S(=O)(=O)c2ccc(OC(F)(F)F)cc2)cnc1C(=O)N1CC(O)C1 [Compound 32] has EC50 smaller than 40 nM.
## Output not met

## Input Given Nc1cc(S(=O)(=O)c2ccc(OC(F)(F)F)cc2)cnc1C(=O)NCC(O)COCC1CC1 (centres unmarked) [Compound 31] , is recorded EC50 strictly lower than 40 nM?
## Output not met

## Input Just wondering, is EC50 of CC(O)(CNC(=O)c1ncc(S(=O)(=O)c2ccc(OC(F)(F)F)cc2)cc1N)C(F)(F)F (centres unmarked) [Compound 2] below 40 nM?
## Output not met

## Input # strict comparison: is reported EC50 < 40 nM? input = CCOCCOCC(O)CNC(=O)c1ncc(S(=O)(=O)c2ccc(OC(F)(F)F)cc2)cc1N (centres unmarked) [Compound 38]
## Output not met

## Input Quick check: does Nc1cc(S(=O)(=O)c2ccc(OC(F)(F)F)cc2)cnc1C(=O)N1CC(F)(F)C1 [Compound 40] have EC50 under 40 nM?
## Output not met

## Input Does this compound meet the criterion EC50 < 40 nM? Nc1cc(S(=O)(=O)c2ccc(F)cc2)cnc1C(=O)NC[C@@H](O)C(F)(F)F [Compound 36]
## Output not met

## Input I'd appreciate it if you could check whether Nc1cc(S(=O)(=O)c2ccccc2OC(F)(F)F)cnc1C(=O)NC[C@@H](O)C(F)(F)F [Compound 81] has EC50 smaller than 40 nM.
## Output met
